Listing of recorded 50 nM XCR1 SMALP, relative binding fold change by entry.
- MEASURED_TARGET: T1, XCR1-SMALP (Homo sapiens, UniProt P46094)
- T1 sequence (P46094 1-333): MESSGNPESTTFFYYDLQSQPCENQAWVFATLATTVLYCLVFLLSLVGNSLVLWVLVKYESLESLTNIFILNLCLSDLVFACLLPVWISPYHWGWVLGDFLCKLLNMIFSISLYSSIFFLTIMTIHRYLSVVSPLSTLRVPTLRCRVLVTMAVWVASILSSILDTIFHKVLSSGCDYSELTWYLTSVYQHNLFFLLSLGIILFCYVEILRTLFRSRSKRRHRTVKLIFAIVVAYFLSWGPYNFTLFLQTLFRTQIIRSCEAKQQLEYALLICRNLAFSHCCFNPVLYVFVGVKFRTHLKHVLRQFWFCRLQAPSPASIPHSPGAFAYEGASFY
- EXPERIMENT_SUMMARY: Yeast-display non-specific binding to irrelevant XCR1-SMALP
- CONDITION_DETAILS: 50 nM; fold change compared to LIBC523797-1(Fab), after background subtraction
Number only, please.

Examples with answers:
MOLECULE: LIBC674090-1: further cognate affinity-matured variant (antibody, V domains shown) VH: QVQLQESGPGLVKPSQTLSLTCTVSGGSIRRGGDYWSWIRQHPGKGLEWIGHIYYAGSTAYNPNFRGRVRISVNTYKNQFSLKLSSVTAADTAVYYCARGYDTSGYSYYYYGLDVWGQGTTVTVSS VL: DIVMTQSPLSLPVTPGEPASISCRSSQSLLHRSGYNYLDWYLQKPGQSPQLLIYQGSNRASGVPDRFSGSGSGTDFTLKISRVEAEDVGVYYCMQSLQTPRTFGQGTKVEIKR
ENDPOINT_VALUE: 0.74
--
MOLECULE: LIBC674229-1: further cognate affinity-matured variant (antibody, V domains shown) VH: QVQLQESGPGLVKPSQTLSLTCTVSGGSIRRGGDYWSWIRQHPGKGLEWIGHIYQTGQTKYNPSFKGRVRISVNTYKNQFSLKLSSVTAADTAVYYCARGYDVSGYSYYYYGMDVWGQGTTVTVSS VL: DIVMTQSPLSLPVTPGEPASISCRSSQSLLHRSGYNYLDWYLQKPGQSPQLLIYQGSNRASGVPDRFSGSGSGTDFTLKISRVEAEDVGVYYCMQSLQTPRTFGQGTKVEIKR
ENDPOINT_VALUE: 0.80

Need 50 nM XCR1 SMALP, relative binding fold change, item LIBC673952-1: further cognate affinity-matured variant; HV SEQ ID NO: 368, LV SEQ ID NO: 367; 52777 in YTE format (antibody, V domains shown, YTE Fc format, 52777 in YTE format) VH: QVQLQESGPGLVKPSQTLSLTCTVSGGSIRRGGDYWSWIRQHPGKGLEWIGHVYYTGQTTYNPSFRGRVTISVNTYKNQFSLKLSSVTAADTAVYYCARDYDILTGYSYYYYGLDVWGQGTTVTVSS VL: DIVMTQSPLSLPVTPGEPASISCRSSQSLLHRSGYNYLDWYLQKPGQSPQLLIYQGSNRASGVPDRFSGSGSGTDFTLKISRVEAEDVGVYYCRQARALPRTFGQGTKVEIKR
0.59
